System: MDA-MB-468 cells
Test: Sulforhodamine B antiproliferative assay, MDA-MB-468
Format: cell-based, human
Conditions: Homo sapiens, MDA-MB-468; sulforhodamine B assay, 48 h of treatment
Protocol: The antiproliferative effect of the isolated compounds (1–11) was investigated by the sulforhodamine B assay against human triple-negative breast cancer cell lines (MDA-MB-468 and MDA-MB-231) and breast ductal carcinoma cells (MCF-7) and the non-tumorigenic fibroblast (HFF-1) and breast cell lines (MCF12A). The IC50 values were determined after 48 h of treatment (Table 1). […]
pIC50: −log10 of the molar value.

# Compound, Measured Target, pIC50
rows = [
    ("COC1C=CC23c4cc5c(cc4CN(CC2O)C3C1)OCO5 (stereo not shown)", "MDA-MB-468 cells", 5.42),
]

====

Recorded measurements of SI E/B, one per entry
system: MDA-MB-468 cells; experiment: Sulforhodamine B antiproliferative assay, MDA-MB-468; format: cell-based, human; conditions: selectivity index, HFF-1 vs MDA-MB-468

# Compound, SI E/B
data = [
    ("COc1cc([C@@H]2c3cc4c(cc3[C@@H](O[C@@H]3O[C@@H]5CO[C@@H](C)O[C@H]5[C@H](O)[C@H]3O)[C@H]3COC(=O)[C@H]23)OCO4)cc(OC)c1O [Etoposide, reference compound]", 2.23),
    ("O[C@H]1[C@H]2c3cc4c(cc3CN3CCC(=C[C@@H]1O)[C@H]23)OCO4", 0.91),
    ("COC1C=CC23c4cc5c(cc4CN(CC2O)C3C1)OCO5 (centres unmarked)", 0.71),
    ("COc1cc2c(cc1O)C(=O)OC1[C@@H](O)C=C3CCN(C)C3[C@]21O (some centres unmarked)", 0.81),
    ("CO[C@@H]1C=C[C@@]23c4cc5c(cc4[C@@H](O)N(C[C@H]2O)[C@H]3C1)OCO5", 0.78),
]

====

tested on: MDA-MB-231 cells; assay: Sulforhodamine B antiproliferative assay, MDA-MB-231; type: cell-based, human; details: sulforhodamine B assay, 48 h of treatment; read-out: IC50 MDA-MDB-231 (A)
Metric Name: IC50

# Compound, Measured Target, Observed Measurement
data = [
    ("CO[C@@H]1C=C[C@@]23c4cc5c(cc4[C@@H](O)N(C[C@H]2O)[C@H]3C1)OCO5", "MDA-MB-231 cells", "4.9 µM"),
    ("O[C@H]1[C@H]2c3cc4c(cc3CN3CCC(=C[C@@H]1O)[C@H]23)OCO4", "MDA-MB-231 cells", "0.9 µM"),
    ("COC1C=CC23c4cc5c(cc4CN(CC2O)C3C1)OCO5 (stereo not shown)", "MDA-MB-231 cells", "3.9 µM"),
    ("COc1cc2c(cc1O)C(=O)OC1[C@@H](O)C=C3CCN(C)C3[C@]21O (stereo partly shown)", "MDA-MB-231 cells", "8 µM"),
]
